// reported Remaining (without cofactor) per item
- experiment: Human liver microsomal stability of compound in microsomal protein, PBS buffer pH 7.4, NADPH, glucose-6-phosphate and glucose-6-phosphate dehydrogenase media. Aliquotes were taken at 5 time points and after stopping the reaction, supernatants were analyzed using HPLC coupled with a tandem mass spectrometer. The elimination constant, half-life, and intrinsic clearance are determined as results using linear regression analysis. The assay has been performed by Enamine biological services, Bienta Ltd.The protocol is publicly available: dx.doi.org/10.17504/protocols.io.5qpvokdb9l4o/v1; also: time not given here
- Assay type: ADME, microsomes, Microsome
- condition-notes: microsomes
# include the unit after the value

{"compound": "C[C@H](C(=O)O)[C@@H](NC(=O)c1ncnc2[nH]ccc12)c1ccc(Br)cc1", "result": "101.611%"}
{"compound": "COc1ccc([C@@H](NC(=O)c2[nH]cnc3nccc2-3)C(C)c2nnn[nH]2)cc1 (stereo not given in full)", "result": "103%"}

Request: Consider the compound shown here: CC(C)[C@@H](Nc1ncnc2[nH]ccc12)c1ccc2c(c1)S(=O)(=O)CCO2 What is its recorded Remaining (without cofactor)?
Response: 92%

Request: Look at this compound and give its reported Remaining (without cofactor). CC(C)[C@@H](Nc1ncnc2[nH]c(C(=O)N[C@H]3CCN(C)C3)cc12)c1ccc2c(c1)S(=O)(=O)CCC2
Response: 107%

Request: // Remaining (without cofactor) lookup, key: CC(C)[C@H](Nc1ncnc2[nH]c(-c3cnn(C)c3C#N)cc12)c1ccc2c(c1)OCCO2
Response: 103%
